# Tested on: SHP-77
# ASSAY_SUMMARY: Inhibition of proliferation of small cell lung cancer cells, CellTiter-Glo
# Type: cell-based
# EXPERIMENTAL_CONTEXT: Homo sapiens, SHP77, 120 h; SHP-77, cultured for 5 days
REPORTED_METRIC: GI50

Study these solved cases before continuing.
COC[C@@H](C)Nc1nc(Nc2ccc(-n3ccnc3C)cc2OC)nc2[nH]cc(C#N)c12 [Example 167] : < 0.1 µM
COc1cc(-c2ccnn2C)ccc1Nc1nc(NC2CCCC2)c2c(Cl)c[nH]c2n1 [Example 127] : < 0.1 µM

// switching to the query molecule
Value sought: GI50, system SHP-77, item COc1cc(Nc2nc(NC3CCCCC3)c3c(C#N)c[nH]c3n2)ccc1-c1ccnn1C [Example 121] . Result: < 0.1 µM

* * *

# System: MDA-MB-231 cells
# ASSAY_SUMMARY: Inhibition of proliferation of triple-negative breast cancer cells, CellTiter-Glo
# Format: cell-based
# EXPERIMENTAL_CONTEXT: Homo sapiens, 120 h; MDA-MB-231, cultured for 5 days
Reported GI50 is given for each of the following compounds.

Study these solved cases before continuing.
COc1cc(N2CCOC2=O)ccc1Nc1nc(NC2CCCCC2)c2c(C#N)c[nH]c2n1 [Example 3] : 100 to 1000 nM
COc1cc(-c2ncnn2C)ccc1Nc1nc(NC2CCCCC2)c2c(C#N)c[nH]c2n1 [Example 26] : < 100 nM

// switching to the query compound
Recorded result, CC1(C)CC(Nc2nc(Nc3cccc4c3OCCO4)nc3[nH]cc(C#N)c23)CCO1 (stereo not drawn) [Example 171] , GI50: < 100 nM

* * *

# Tested on: MDA-MB-231 cells
# ASSAY_SUMMARY: Inhibition of proliferation of triple-negative breast cancer cells, CellTiter-Glo
# Type: cell-based
# EXPERIMENTAL_CONTEXT: Homo sapiens, 120 h; MDA-MB-231, cultured for 5 days
Reported GI50 is given for each of the following molecules.

COc1cc(-c2ncn(C)n2)ccc1Nc1nc(NC2CCCCC2)c2c(C#N)c[nH]c2n1 : < 100 nM
CNc1nc(Nc2ccc(N3CCCC3=O)cc2OC)nc2[nH]cc(C(F)(F)F)c12 : > 1000 nM
Cn1nccc1-c1ccc(Nc2nc(NC3C[C@H]4CC[C@@H]3C4)c3c(C#N)c[nH]c3n2)c2c1OCCO2 (some centres unmarked) : < 100 nM

// switching to the query molecule
Recorded result, "COc1cc(N2CCCC2=O)ccc1Nc1nc(NC2CCCC2)c2c(C#N)c[nH]c2n1" , GI50: < 100 nM

* * *

Reported pIC50 is given for each of the following molecules.
# SYSTEM: UniProt:P33981
# Sequence (P33981 1-857): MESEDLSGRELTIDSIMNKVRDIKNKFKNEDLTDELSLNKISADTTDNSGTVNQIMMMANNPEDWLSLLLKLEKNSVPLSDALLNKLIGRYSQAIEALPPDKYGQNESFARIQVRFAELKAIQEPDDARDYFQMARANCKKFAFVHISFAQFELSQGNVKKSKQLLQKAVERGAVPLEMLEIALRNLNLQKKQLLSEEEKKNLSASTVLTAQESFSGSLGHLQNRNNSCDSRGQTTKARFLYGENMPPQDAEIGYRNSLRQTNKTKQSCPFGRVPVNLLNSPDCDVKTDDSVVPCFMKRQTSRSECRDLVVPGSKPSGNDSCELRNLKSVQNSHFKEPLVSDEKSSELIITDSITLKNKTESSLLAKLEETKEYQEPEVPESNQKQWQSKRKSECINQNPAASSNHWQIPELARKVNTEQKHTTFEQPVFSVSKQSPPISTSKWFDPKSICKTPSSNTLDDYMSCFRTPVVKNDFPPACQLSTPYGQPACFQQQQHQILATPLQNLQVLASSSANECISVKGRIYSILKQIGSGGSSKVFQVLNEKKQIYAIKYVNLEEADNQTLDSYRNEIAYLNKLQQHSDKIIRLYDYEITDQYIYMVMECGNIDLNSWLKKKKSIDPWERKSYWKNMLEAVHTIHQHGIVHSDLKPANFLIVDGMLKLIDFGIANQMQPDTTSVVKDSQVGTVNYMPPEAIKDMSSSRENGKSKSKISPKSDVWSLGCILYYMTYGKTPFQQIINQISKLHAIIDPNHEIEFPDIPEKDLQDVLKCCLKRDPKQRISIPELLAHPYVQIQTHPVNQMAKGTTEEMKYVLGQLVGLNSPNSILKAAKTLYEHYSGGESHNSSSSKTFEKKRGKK
pIC50: −log10 of the molar value. Counter-ions that a name gives are not always drawn.

Study these solved cases before continuing.
COc1cc(N2CCCC2=O)ccc1Nc1nc(O[C@H]2CC[C@@](C)(O)CC2)c2c(C#N)c[nH]c2n1 [Example 32] : > 7.30
COc1cc(N2CCCCS2(=O)=O)ccc1Nc1nc(NC2CCOCC2)c2c(C#N)c[nH]c2n1 [Example 163] : > 7.30
Cn1nccc1-c1ccc(Nc2nc(NC3CC3)c3c(C#N)c[nH]c3n2)c2c1OCCO2 [Example 99] : > 7.30
COc1cc(-c2cncn2C)ccc1Nc1nc(NC2CCCC2)c2c(C#N)c[nH]c2n1 [Example 30] : > 7.30
COc1cc(-c2ccc(F)nc2)ccc1Nc1nc(NC2CCCC2)c2c(C#N)c[nH]c2n1 [Example 42] : 6.70 to 7.30
CC(C)COc1cc(N2CCCC2=O)ccc1Nc1nc(NC2CCCC2)c2c(C#N)c[nH]c2n1 [Example 28] : 6.00 to 6.70
COc1cc(N2CCCS2(=O)=O)ccc1Nc1nc(NC2CCOCC2)c2c(C(F)(F)F)c[nH]c2n1 [Example 174] : > 7.30
Cn1nccc1-c1ccc(Nc2nc(NC3CCCC3)c3cc[nH]c3n2)c2c1OCCO2 [Example 114] : > 7.30
COc1cc(-c2nncn2C)ccc1Nc1nc(NC2CCOCC2)c2c(C(F)(F)F)c[nH]c2n1 [Example 117] : > 7.30
COc1cc(-c2ccccc2)ccc1Nc1nc(NC2CCOCC2)c2c(C#N)c[nH]c2n1 [Example 134] : > 7.30

Value sought: pIC50, system UniProt:P33981, item COc1cc(N2CCCC2=O)ccc1Nc1nc(NC2CCCCC2)c2c(C#N)c[nH]c2n1 [Example 56] . Result: > 7.30

Value sought: pIC50, system UniProt:P33981, item CC(C)S(=O)(=O)CCNc1nc(Nc2ccc(-c3ccnn3C)c3c2OCCO3)nc2[nH]cc(C#N)c12 [Example 83, trifluoroacetate] . Result: > 7.30
